- assayed-target: Prothrombin (Rattus norvegicus)
reported-metric: Ki (nM)

Entry N=C(N)NCCCCNC(=O)C1CC[C@H]2CN(C(=O)CCc3ccccc3)CC(=O)N12 (some centres undefined) , Prothrombin (Rattus norvegicus) data, Ki value: 900

Record Cc1cc(C(=N)N)ccc1CNC(=O)[C@@H]1CC[C@H]2CN(S(=O)(=O)Cc3ccccc3)CC(=O)N21 ; system Prothrombin (Rattus norvegicus); Ki = 7

a: N=C(N)N1CCC(CNC(=O)[C@@H]2CC[C@H]3CN(C(=O)CCc4ccccc4)CC(=O)N32)CC1
b: N=C(N)NCCC[C@H](NC(=O)[C@@H]1CC[C@H]2CN(C(=O)CCc3ccccc3)CC(=O)N21)C(=O)c1nccs1
Q) Between a and b , whose recorded Ki is greater? Respond using the label that marks the chosen record.
A) a
(a: 180 nM, b: 0.6 nM)
